meta.source: ChEMBL document CHEMBL3797137

Biological target: Growth hormone secretagogue receptor type 1 (Homo sapiens)
Sequence (Q92847 whole entry): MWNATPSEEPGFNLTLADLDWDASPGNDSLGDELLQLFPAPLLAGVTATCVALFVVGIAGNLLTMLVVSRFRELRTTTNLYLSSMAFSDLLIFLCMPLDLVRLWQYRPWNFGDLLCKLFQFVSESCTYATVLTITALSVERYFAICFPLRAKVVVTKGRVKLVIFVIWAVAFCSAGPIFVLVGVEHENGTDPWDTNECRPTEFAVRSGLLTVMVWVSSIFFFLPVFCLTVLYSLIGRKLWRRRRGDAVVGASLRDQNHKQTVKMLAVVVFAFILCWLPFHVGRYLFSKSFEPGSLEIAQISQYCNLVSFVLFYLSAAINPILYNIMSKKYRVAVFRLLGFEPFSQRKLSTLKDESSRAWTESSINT
Test: Inverse agonist activity at human GHS-R1a expressed in HEK293T cells after 45 mins by HTRF-based IP3 turnover assay
Type: functional, cell-based, HEK-293T
readout label: pEC50
Notebook: values listed as pEC50 are -log10 of the concentration (mol/L).

Data point: CC(C)C[C@H](NC(=O)[C@H](CC(C)C)NC(=O)[C@@H](Cc1c[nH]c2ccccc12)NC(=O)[C@H](Cc1ccccc1)NC(=O)[C@@H](Cc1c[nH]c2ccccc12)NC(=O)[C@@H](N)CCCCN)C(N)=O ; pEC50 = 7.00

response.value for COc1ccc(Cn2c([C@@H](Cc3c[nH]c4ccccc34)NC(=O)[C@H](CC(C)C)NC(=O)[C@H](CC(C)C)NC(C)=O)nnc2[C@@H](Cc2c[nH]c3ccccc23)NC(=O)[C@@H](N)CCCCN)cc1 (field: pEC50) = 7.15
